Target: AURKA (MV4-11^AURKA-HiBiT cells) (Homo sapiens)
Construct: expressed in transfected cells; host or cells: MV4-11, lentiviral transduction
Sequence (O14965 1-403): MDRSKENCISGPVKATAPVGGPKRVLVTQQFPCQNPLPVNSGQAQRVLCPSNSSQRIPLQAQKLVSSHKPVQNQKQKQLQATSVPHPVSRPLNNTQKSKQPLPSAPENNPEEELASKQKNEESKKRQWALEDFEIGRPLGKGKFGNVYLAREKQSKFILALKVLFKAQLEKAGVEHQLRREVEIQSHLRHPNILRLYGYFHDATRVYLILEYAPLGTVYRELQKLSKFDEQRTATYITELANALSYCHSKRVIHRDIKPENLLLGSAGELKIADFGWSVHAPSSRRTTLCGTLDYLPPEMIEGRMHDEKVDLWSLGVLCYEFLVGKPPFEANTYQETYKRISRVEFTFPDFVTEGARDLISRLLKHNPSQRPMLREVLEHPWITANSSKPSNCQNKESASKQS
Experiment: HiBiT assay, AURKA degradation
Assay type: cell-based
Design: key: compounds with degradation less than 15% reported as “inactive”
Conditions: 6 h treatment, MV4-11^AURKA-HiBiT cells
PARAMETER MEASURED: Dmax (maximal degradation) AURKA

## Task Name the recorded Dmax (maximal degradation) AURKA for COc1cc(N2CCC(OCC(=O)NCCNc3cccc4c3C(=O)N(C3CCC(=O)NC3=O)C4=O)CC2)ccc1Nc1nc(Nc2ccccc2S(=O)(=O)C(C)C)c2nc[nH]c2n1 (stereo not drawn) [Compound 34] .
## Result inactive

## Task One more compound: COc1cc(N2CCC(OCC(=O)NCCOCCOCCNc3cccc4c3C(=O)N(C3CCC(=O)NC3=O)C4=O)CC2)ccc1Nc1nc(Nc2ccccc2S(=O)(=O)C(C)C)c2nc[nH]c2n1 (stereo not drawn) [Compound 38]
## Result inactive

## Task Now consider Cc1ncsc1-c1ccc(CNC(=O)[C@@H]2C[C@H](O)CN2C(=O)[C@@H](NC(=O)COCCOCC(=O)N2CCN(c3ccc(Nc4nc(Nc5ccccc5S(=O)(=O)C(C)C)c5nc[nH]c5n4)cc3)CC2)C(C)(C)C)cc1 [Compound 51] .
## Result inactive
